target: KIF5B-RET G810R (Homo sapiens, UniProt P07949, G810R); construct: KIF5B (fusion partner); the other entry of the earlier key: KIF5B (P33176, Kinesin-1 heavy chain); test: Cell viability assay (CellTiter-Glo) in BaF3 cells expressing KIF5B-RET G810R; conditions: B/KR mutant cell line G810R; read-out: IC50 of RET mutants, G810R
Sequence (P07949 713-1063 G810R limits assumed): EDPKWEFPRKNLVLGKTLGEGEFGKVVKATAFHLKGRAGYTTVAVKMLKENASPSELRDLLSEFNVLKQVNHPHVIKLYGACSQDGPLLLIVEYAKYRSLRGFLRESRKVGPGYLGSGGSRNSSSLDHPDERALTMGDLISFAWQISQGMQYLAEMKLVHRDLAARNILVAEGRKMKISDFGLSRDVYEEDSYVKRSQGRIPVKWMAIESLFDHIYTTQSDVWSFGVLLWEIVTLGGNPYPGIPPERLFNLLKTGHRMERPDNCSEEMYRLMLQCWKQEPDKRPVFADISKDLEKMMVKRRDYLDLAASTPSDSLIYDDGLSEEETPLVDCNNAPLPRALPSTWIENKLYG
// reported IC50 per item
Write the quantity with the unit trailing the number.

COMPOUND: CN1CCN(Cc2ccc(NC(=O)c3cncc(C#Cc4cnc5[nH]ncc5c4)c3)cc2C(F)(F)F)CC1 [Example 1]
IC50: 24.5 nM

Given the entry CN1CCN(Cc2ccc(NC(=O)c3cncc(C#Cc4cnc(N)nc4)c3)cc2C(F)(F)F)CC1 [Example 2] , report its measured IC50.
46.8 nM
